// data source = paper PMC6522510

Test system: CMK
Set-up: species or system AML cell lines (8); Primary HTS, single concentration about 10 uM, Cell Titer Glo viability; log10 luminescence, per cent inhibition relative to cycloheximide control
Test parameters: 72 h, relative to cycloheximide control, log10 luminescence; inhibitor
Listed here: items and their measured CMK %inh.
Reply numerically in %, unit not repeated.

| Smiles | Property measured | Unit abbrev | Observed result |
| --- | --- | --- | --- |
| COc1ccc2ncn(-c3cc(O[C@H](C)c4ccccc4Cl)c(C(N)=O)s3)c2c1 | CMK %inh | % | 106.8 |

Q: Tell me the measured CMK %inh of COc1cc2ncnc(Nc3ccc4c(cnn4Cc4ccccc4)c3)c2cc1OC , please.
Ans: 0.8373

Q: Tell me the measured CMK %inh of Nc1ncnc2occ(-c3ccc(NC(=O)Nc4cccc(C(F)(F)F)c4)cc3)c12 , please.
Ans: 22.69

---

Test system: MV4-11
Method: Secondary dose-response HTS, Cell Titer Glo
Format: cell-based, human
Test parameters: Homo sapiens; secondary high-throughput screen; MV4-11; read-out: average effective concentration, MV4-11
pEC50: −log10 of the molar value.
So basically: pEC50 at 6 or higher? That is label 1. Lower than 6? That is label 0.

Known results for molecules:
| Molecule | Target of assay | Assigned label |
| --- | --- | --- |
| CCc1nc(N)nc(N)c1-c1ccc(Cl)cc1 | MV4-11 | label 0 |
| C[C@@H](Oc1cc(-n2cnc3ccc(CN4CCN(C)CC4)cc32)sc1C(N)=O)c1ccccc1C(F)(F)F | MV4-11 | label 1 |

Here's the next entry for you.
Q: hey, is pEC50 for this one >= 6? C/C=C1\NC(=O)[C@H]2CSSCC/C=C/[C@H](CC(=O)N[C@H](C(C)C)C(=O)N2)OC(=O)[C@H](C(C)C)NC1=O [Romidepsin, reference compound]
Ans: label 1

---

Test system: M07e
Parameters: species or system AML cell lines (8); Primary HTS, single concentration about 10 uM, Cell Titer Glo viability; log10 luminescence, per cent inhibition relative to cycloheximide control
Test parameters: 72 h, relative to cycloheximide control, log10 luminescence; inhibitor
Counter-ions that a name gives are not always drawn. Numbered stars: 1 amine (or outer) side, 2 acyl side, 3 side chain; on linkers, the order of the positions; unused ones are H or OH. Peptide text beside a SMILES is read from it. CO = O=C([*:1])[*:2]
Property measured: M07e %inh (%)
Reply numerically in %, unit not repeated.

| Molecule | Target of assay | M07e %inh, % |
| --- | --- | --- |
| NC(=O)c1cc(-c2ccc(Cl)cc2)cc(-c2ccc(S(N)(=O)=O)cc2)c1N | M07e | -0.482 |
| COc1cc[nH]c1/C=C1\C(=O)Nc2ccc([N+](=O)[O-])c(N3CC[C@@H](O)C3)c21 | M07e | 106 |
| CC(C)[C@H](NC(=O)[C@H](CCCNC(=N)N)NC(=O)N[C@@H](Cc1ccccc1)C(=O)O)C(=O)N[C@H](C=O)CCCNC(=N)N [SJ000772410-1, ANTIPAIN, DIHYDROCHLORIDE] ({Phe-CO}-Arg-Val-Arg-aldehyde) | M07e | -0.5062 |
| Nc1c(C(=O)c2cccc(-c3ccncc3)c2)cnn1-c1ccc(F)cc1F | M07e | 29.92 |
| O=C1NC(=NCC(CO)c2ccccc2)S/C1=C\c1ccc2ncccc2c1 (centres unmarked) | M07e | 4.562 |
| Nc1c(C(=O)c2cccc(CCC3(O)CCCC3)c2)cnn1-c1ccc(F)cc1 | M07e | 2.495 |
| Nc1c(C(=O)c2ccc(CCCN3CCOCC3)cc2)cnn1-c1ccc(F)cc1 | M07e | 0.8427 |
| CC(C)C[C@H](N)C(=O)N[C@H](C(=O)N[C@H](C(=O)N[C@@H](Cc1ccc(O)cc1)C(=O)N1CCC[C@H]1C(=O)N[C@@H](Cc1c[nH]c2ccccc12)C(=O)N[C@H](C(=O)O)[C@@H](C)O)C(C)C)C(C)C [SJ000556698-1, SPINORPHIN] (H-LVVYPWT-OH) | M07e | -3.453 |

Q: Tell me the measured M07e %inh of COc1ccc(O)c(C(=O)c2ccc(C(=O)O[C@@H]3CCCNC[C@H]3NC(=O)c3ccncc3)cc2)c1F , please.
Ans: 15.86

Q: Tell me the measured M07e %inh of Cc1ccc(C(=O)NC2CCCCC2)cc1-c1ccc(C(=O)NCC2CC2)cc1 , please.
Ans: -0.328

Q: Tell me the measured M07e %inh of C[C@H](CCC(=O)O)[C@H]1CC[C@H]2[C@@H]3CC[C@@H]4C[C@H](O)CC[C@]4(C)[C@H]3CC[C@]12C , please.
Ans: 1.09
